Target: Microphthalmia-associated transcription factor (Homo sapiens) (UniProt O75030)
Sequence (O75030 whole entry, looked up): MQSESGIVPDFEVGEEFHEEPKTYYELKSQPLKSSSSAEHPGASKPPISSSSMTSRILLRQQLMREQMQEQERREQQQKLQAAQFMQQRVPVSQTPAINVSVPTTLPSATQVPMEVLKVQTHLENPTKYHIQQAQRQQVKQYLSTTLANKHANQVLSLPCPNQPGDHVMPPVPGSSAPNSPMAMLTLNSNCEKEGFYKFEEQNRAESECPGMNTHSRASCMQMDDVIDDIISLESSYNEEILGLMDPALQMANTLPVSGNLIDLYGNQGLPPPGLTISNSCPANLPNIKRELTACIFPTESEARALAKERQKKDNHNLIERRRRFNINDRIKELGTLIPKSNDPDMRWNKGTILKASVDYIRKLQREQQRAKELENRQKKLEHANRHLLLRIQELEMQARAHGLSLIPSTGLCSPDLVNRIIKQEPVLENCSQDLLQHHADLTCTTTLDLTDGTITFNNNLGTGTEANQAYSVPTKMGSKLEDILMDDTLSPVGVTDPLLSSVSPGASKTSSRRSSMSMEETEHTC
Assay: MITF inhibitors, primary screen, biochemical, AlphaScreen, human (AID 1259374);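 further: 0% = vehicle wells with protein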
Conditions: AlphaScreen MITF homodimerization, bead proximity signal; at 2.6 µM
The campaign covered roughly 650,000 compounds. About 5,900 (0.91%) were called active. No stated cut-off is given here; in the data, active means inhibition above about 50%; inactive means the rest. Shown is part of a subset that was picked to be rich in actives.
Returns: one label drawn from active, inactive

Please share the test call associated with "CN1CCN(c2nccnc2-c2cccc(C(=O)NCCO)c2)CC1" .
inactive

Please share the test call associated with "Cc1cccc(OCc2nc(C#N)c(NCCCN(C)C)o2)c1" .
inactive

Please share the test call associated with "CC(C)c1ccc(NC(=O)CSc2nnc(CNC(=O)c3ccccc3)n2C)cc1" .
inactive

Please share the test call associated with "COc1ccc(-n2nc(C(=O)N3CCC(C(N)=O)CC3)c3ccccc3c2=O)c(OC)c1" .
inactive

Please share the test call associated with "C/C(CC(=O)Nc1ccc(Cl)cc1C)=N\NC(=O)c1ccc([N+](=O)[O-])c(Cl)c1" .
inactive

Please share the test call associated with "O=c1[nH]cnc2nc(N/N=C/c3ccc(Cl)cc3)[nH]c12" .
inactive

Please share the test call associated with "CC(=O)N1CCN(CC(=O)Nc2ccc(C)c(F)c2)CC1" .
active

Please share the test call associated with "O=C(CCc1ccc2c(c1)OCO2)N1CCC(c2[nH]ncc2-c2ccccc2)CC1" .
inactive

Please share the test call associated with "Cc1ccc2nc3sc(C(=O)N4CC(=O)Nc5ccccc54)c(N)c3cc2c1" .
inactive

Please share the test call associated with "O=C(CSc1cn(Cc2cccc(F)c2)c2ccccc12)Nc1ccccc1" .
inactive

Please share the test call associated with "Oc1c(CN2CCN(c3cccc(Cl)c3)CC2)cc(Br)c2cccnc12" .
inactive

Please share the test call associated with "Cc1nc2ccccc2n1CCc1noc(COc2ccccc2)n1" .
inactive

Please share the test call associated with Cc1nc(N2CCCCC2C)c2c(C)c(C(=O)NC3CCCCC3)sc2n1 (centres undefined) .
inactive

Please share the test call associated with CN(Cc1cccs1)C(=O)CC1(c2cccc(F)c2)CC(=O)N(C2CCCC2)C1=O (centres undefined) .
inactive

Please share the test call associated with "CCOC(=O)c1sc(=S)n(-c2cccc(C(F)(F)F)c2)c1N" .
inactive

Please share the test call associated with "COCc1nc2ccccc2n1CCc1noc(-c2cccs2)n1" .
inactive

Please share the test call associated with O=C1NC(c2ccccc2[N+](=O)[O-])C(C(=O)c2cccs2)C(O)(C(F)(F)F)N1 (centres undefined) .
active

Please share the test call associated with "O=C(O)c1cccc(-n2[nH]c(-c3ccccc3)cc2=O)c1" .
inactive

Please share the test call associated with "Cc1cccc(NC(=O)CC[C@H]2CN(Cc3ccccc3)CC[C@H]2N(C)C)c1" .
inactive

Please share the test call associated with "O=C(c1ccccc1)N1CCN(Cc2ccc(Cl)cc2)CC1" .
inactive

Please share the test call associated with Clc1ccc(CN2CCc3nnc(C4CCCO4)n3CC2)cc1 (centres undefined) .
inactive

Please share the test call associated with Cc1cccc(NC(=O)C(c2ccccc2)N2CCOCC2)c1 (centres undefined) .
inactive

Please share the test call associated with "N#Cc1nc(COc2cccc(Cl)c2)oc1NCCCn1ccnc1" .
active

Please share the test call associated with CCc1ccc(C(=O)CC(c2ccccc2)C2CCCCC2=O)cc1 (centres undefined) .
inactive

Please share the test call associated with "Cc1cccnc1NC(=O)CSc1nnc(COc2ccc(C(C)C)cc2)n1C" .
active

Please share the test call associated with "O=[N+]([O-])c1c(Cl)cc(Cl)c2nsnc12" .
inactive

Please share the test call associated with "CCS(=O)(=O)N1CCC(c2nnc(C3CC3)s2)CC1" .
inactive

Please share the test call associated with "O=C(NCCc1ccccc1)c1ccc(Cn2c(=S)[nH]c3cc4c(cc3c2=O)OCO4)cc1" .
inactive

Please share the test call associated with COCCn1nnnc1C(C)N(CCCO)Cc1cc2cc(C)ccc2[nH]c1=O (centres undefined) .
inactive

Please share the test call associated with "Cc1ccc(NC(=O)CN2CCN(c3ccccn3)CC2)cc1F" .
inactive

Please share the test call associated with "Cc1nnc(SCC(=O)N2c3ccccc3Sc3ccccc32)nc1C" .
inactive

Please share the test call associated with Cc1cc(OCC(O)CNCC(C)O)c(C(C)C)cc1Cl (centres undefined) .
inactive

Please share the test call associated with "C/C(=N\NC(=O)CCCc1cc2ccccc2[nH]1)c1ccncc1" .
inactive

Please share the test call associated with O=C1NC(c2c(F)cccc2Cl)C(C(=O)c2cccs2)C(O)(C(F)(F)F)N1 (centres undefined) .
inactive

---

Target: Microphthalmia-associated transcription factor (Homo sapiens) (UniProt O75030)
Assay: MITF inhibitors, primary screen, biochemical, AlphaScreen, human (AID 1259374);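 further: 0% = vehicle wells with protein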
Settings: AlphaScreen MITF homodimerization, bead proximity signal; at 2.6 µM
In all, about 650,000 compounds went through this assay and about 5,900 (0.91%) were called active. Rule as the data show it: active = inhibition above about 50%; inactive = the rest. The full list was thinned out, with actives kept by preference.
Returns: one label drawn from active, inactive

Please share the test call associated with "CN(Cc1ccccc1)C(=O)CCC1CCN(C(=O)CCc2ccccn2)CC1" .
inactive

Please share the test call associated with "CN1CCN(c2ncnc3c2cnn3-c2ccc(Cl)c(Cl)c2)CC1" .
inactive

Please share the test call associated with "O=C(Cc1cccc2ccccc12)Nc1nnc(-c2ccco2)o1" .
inactive

Please share the test call associated with "COC(=O)c1cccc(NC(=O)c2ccccc2NS(=O)(=O)c2ccc(C)cc2)c1C" .
inactive

Please share the test call associated with "CC(C)NC(=O)Cn1nc(SCc2ccccn2)nc1N" .
inactive

Please share the test call associated with "CC(=O)NS(=O)(=O)c1ccc(-c2ccc(C=C(C#N)C#N)o2)cc1" .
active

Please share the test call associated with "COC(=O)c1ccccc1NS(=O)(=O)c1ccc2[nH]c(=O)ccc2c1" .
inactive

Please share the test call associated with "COc1ccc(Cl)cc1-c1nc(SCC(=O)Nc2ccc([N+](=O)[O-])cc2C#N)n[nH]1" .
inactive

Please share the test call associated with "CCc1ccccc1NC(=O)c1cc2nc(-c3cccs3)cc(C(F)(F)F)n2n1" .
inactive

Please share the test call associated with "C/C(=N\Nc1ccc(Cl)nn1)c1ccccc1O" .
active

Please share the test call associated with "COC(=O)c1cccc(NS(=O)(=O)c2ccc3ccccc3c2)c1C" .
active

Please share the test call associated with "c1ccc(CSc2nc(C3CC3)nc3ccccc23)nc1" .
inactive

Please share the test call associated with "O=C(COc1ccccc1)NCc1cccnc1" .
inactive

Please share the test call associated with "CCOc1ccccc1N(CC(=O)NC(C)(C)CC)C(=O)CCC(=O)Nc1nccs1" .
inactive

---

Molecular target: Microphthalmia-associated transcription factor (Homo sapiens)
Test: MITF inhibitors, primary screen, biochemical, AlphaScreen, human (AID 1259374);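 further: 0% = vehicle wells with protein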
Settings: AlphaScreen MITF homodimerization, bead proximity signal; at 2.6 µM; active compounds read high
Hit rate of the full screen: of about 650,000 compounds, about 5,900 (0.91%) were called active. This excerpt belongs to a sample that is enriched for actives.
reported_endpoint: inhibition (%)
Reply numerically in %, unit not repeated.

Entry under review: "NS(=O)(=O)c1ccc(O)c2ccccc12" . Reported inhibition?
13.7

Entry under review: Cc1ccc(N(C(=O)C(C)Oc2ccccc2)C2C=CS(=O)(=O)C2)cc1 (stereo not given) . Reported inhibition?
-4

Entry under review: "COc1ccc(OC)c(-n2nnnc2SCC(=O)N2CCc3ccccc32)c1" . Reported inhibition?
9.95

Entry under review: COC(=O)C1(C)NC(c2ccc(C)cc2)C2C(=O)N(c3ccc(C)cc3)C(=O)C21 (stereo not given) . Reported inhibition?
10.8

Entry under review: "COCCN(CCOC)C(=O)CSc1nnc2nc(C)cc(C)n12" . Reported inhibition?
9.62

---

Biological target: Microphthalmia-associated transcription factor (Homo sapiens)
Assay: MITF inhibitors, primary screen, biochemical, AlphaScreen, human (AID 1259374);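 further: 0% = vehicle wells with protein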
Details: AlphaScreen MITF homodimerization, bead proximity signal; at 2.6 µM; active compounds read high
About 5,900 (0.91%) of roughly 650,000 compounds were called active. Shown is part of a subset that was picked to be rich in actives.
So basically: inhibition at 10% or higher? That is Criterion met. Lower than 10%? That is Criterion not met.

# check: inhibition of "Cc1ccc2oc(-c3ccc(C)c(NC(=O)c4ccc(Cl)c([N+](=O)[O-])c4)c3)nc2c1" is greater than or equal to 10%
Criterion met

# check: inhibition of "CCS(=O)(=O)N1CCN(c2cccc(Cl)c2)CC1" is greater than or equal to 10%
Criterion not met

# check: inhibition of "Cc1cc2nc(N3CCCN(Cc4cccnc4)CC3)nc(C)c2cc1C" is greater than or equal to 10%
Criterion not met

# check: inhibition of CCN(CC)C(=O)C1CCCN(Cc2ccccc2OC)C1 (centres undefined) is greater than or equal to 10%
Criterion met

# check: inhibition of "COc1ccc(C(=O)N2CCN(Cc3cccc(OC)c3)CC2)cc1" is greater than or equal to 10%
Criterion met

# check: inhibition of "c1ccc(CC2CCN(c3nc4ccccc4n4cnnc34)CC2)cc1" is greater than or equal to 10%
Criterion not met

# check: inhibition of "Cc1ccc(C)c(NCN2C(=O)CSC2=O)c1" is greater than or equal to 10%
Criterion met

# check: inhibition of CC1CN(Cc2ccc3ccccc3c2)CC(C)O1 (centres undefined) is greater than or equal to 10%
Criterion not met

# check: inhibition of "Cc1ccc(-c2noc(CN(C(C)C)S(=O)(=O)c3ccc(F)cc3)n2)cc1" is greater than or equal to 10%
Criterion not met

# check: inhibition of "C=CCNC(=O)c1cc2cc(Cl)ccc2oc1=O" is greater than or equal to 10%
Criterion met

# check: inhibition of COc1ccc(OC)c(CN2CCc3nnc(C4CCCO4)n3CC2)c1 (centres undefined) is greater than or equal to 10%
Criterion not met

# check: inhibition of "CNC(=O)NC(=O)CSc1ncnc2sc(-c3ccccc3)cc12" is greater than or equal to 10%
Criterion not met

# check: inhibition of "COc1cccc(/C=C(\C#N)c2nc3ccccc3[nH]2)c1OCc1ccc(Cl)cc1Cl" is greater than or equal to 10%
Criterion met

# check: inhibition of "CCOC(=O)c1cc2cccnc2nc1C" is greater than or equal to 10%
Criterion met

# check: inhibition of "CCOc1ccccc1N1CCN(Cc2cc(OC)c(O)c([N+](=O)[O-])c2)CC1" is greater than or equal to 10%
Criterion met

# check: inhibition of "COc1cc([N+](=O)[O-])cc([N+](=O)[O-])c1NC(=O)N1CCOCC1" is greater than or equal to 10%
Criterion met

# check: inhibition of CCC(C)NCCOCCOc1cc(C)cc(C)c1C (centres undefined) is greater than or equal to 10%
Criterion met

# check: inhibition of "COc1ccc(OC)c(CN2CCN(Cc3ccc(Cl)cc3)CC2)c1" is greater than or equal to 10%
Criterion met

# check: inhibition of "NS(=O)(=O)c1ccc(NSc2ccccc2[N+](=O)[O-])cc1" is greater than or equal to 10%
Criterion met

# check: inhibition of "CS(=O)(=O)N1CCN(Cc2cccc(Cl)c2)CC1" is greater than or equal to 10%
Criterion met

# check: inhibition of "Cc1cc2c(cc3c(=O)n(CC(=O)N4CCCCCC4)nc(C)n32)s1" is greater than or equal to 10%
Criterion met

# check: inhibition of COc1ccccc1CN1CC(C)OC(C)C1 (centres undefined) is greater than or equal to 10%
Criterion met

# check: inhibition of O=S(=O)(c1ccc(C2Nc3ccc(Cl)cc3C3C=CCC32)cc1)N1CCOCC1 (centres undefined) is greater than or equal to 10%
Criterion not met

# check: inhibition of "COc1ccc(CN2CCN(Cc3cc(OC)ccc3OC)CC2)cc1" is greater than or equal to 10%
Criterion met

# check: inhibition of "COc1cccc(/C=C(\C#N)c2nc3ccc(C)cc3[nH]2)c1OC" is greater than or equal to 10%
Criterion not met

# check: inhibition of CCC(C)NCCOCCOc1ccc(Br)cc1C (centres undefined) is greater than or equal to 10%
Criterion met

# check: inhibition of "Cc1cc(C(F)(F)F)nn1CC(=O)Nc1ccc(I)c(Cl)c1" is greater than or equal to 10%
Criterion not met

# check: inhibition of "O=C(c1cccnc1N1CCC(Cc2ccccc2)CC1)N1CCCCC1" is greater than or equal to 10%
Criterion met

# check: inhibition of N#CC1=C(SCC(=O)Nc2cccc(F)c2)NC(=O)CC1c1ccccc1F (centres undefined) is greater than or equal to 10%
Criterion not met

# check: inhibition of "Clc1cccc(CN2CCN(c3ccccn3)CC2)c1" is greater than or equal to 10%
Criterion met

# check: inhibition of "Cc1nnc(N2CCC(Cc3ccccc3)CC2)c2ccccc12" is greater than or equal to 10%
Criterion met

# check: inhibition of "O=c1c2sc(=S)n(CCc3ccccc3)c2[nH]c(=S)n1Cc1ccco1" is greater than or equal to 10%
Criterion not met

# check: inhibition of "COC(=O)c1c(OC2CCCC2)cc(=O)n2c1CCN(Cc1cccnc1)CC2" is greater than or equal to 10%
Criterion not met

Measured values drawn from PubChem BioAssay AID1259374 for this set.
